ASSAY_METHOD_TEXT: Ocular tissue and plasma pharmacokinetics, 50 mg/kg BID oral, Dutch Belted rabbits (Example 4/5)
Assay type: in vivo
SETTINGS: male, Dutch Belted, po; Retina, DB rabbit, 50 mg/kg BID, Day 15
OBSERVED_PROPERTY: Cmax

Inquiry: Recorded Cmax of CC(=O)c1nn(CC(=O)N2C[C@H](F)C[C@H]2C(=O)Nc2cccc(Br)n2)c2ccc(-c3cnc(C)nc3)cc12 [Compound 1] , please.
Reply text: 2120 ng/g

----------
ASSAY_METHOD_TEXT: Ocular tissue distribution and pharmacokinetics, 15 mg/kg BID oral, nonpigmented New Zealand White rabbits (Example 7)
Format: in vivo
SETTINGS: New Zealand White, rabbit; plasma, male NZW rabbits, Group 4, Day 15, 15 mg/kg/dose BID oral (30 mg/kg/day)
OBSERVED_PROPERTY: Tmax (h)
Answer with a number only, understood to be in h.

Inquiry: Recorded Tmax of CC(=O)c1nn(CC(=O)N2C[C@H](F)C[C@H]2C(=O)Nc2cccc(Br)n2)c2ccc(-c3cnc(C)nc3)cc12 , please.
Reply text: 1

----------
ASSAY_METHOD_TEXT: Ocular tissue and plasma pharmacokinetics, 15 mg/kg single and BID oral, Dutch Belted rabbits (Example 3/5)
Format: in vivo
SETTINGS: Dutch Belted, rabbit, retina, oral, 15 mg/kg, DB rabbits, Day 15, 15 mg/kg BID, 168 hr; read-out: Mean Retina Concentration
OBSERVED_PROPERTY: concentration at 168 h (ng/g)
Answer with a number only, understood to be in ng/g.

Inquiry: Recorded concentration at 168 h of CC(=O)c1nn(CC(=O)N2C[C@H](F)C[C@H]2C(=O)Nc2cccc(Br)n2)c2ccc(-c3cnc(C)nc3)cc12 , please.
Reply text: 36.5

----------
ASSAY_METHOD_TEXT: Phase 1 single ascending dose plasma pharmacokinetics in healthy volunteers
Type: in vivo, human
SETTINGS: human, po, 200 mg, Group 1, 200 mg single oral dose, Mean (N 6), read-out: AUC(0-∞)
OBSERVED_PROPERTY: AUC(0-inf) (ng·h/mL)
Answer with a number only, understood to be in ng·h/mL.

Inquiry: Recorded AUC(0-inf) of CC(=O)c1nn(CC(=O)N2C[C@H](F)C[C@H]2C(=O)Nc2cccc(Br)n2)c2ccc(-c3cnc(C)nc3)cc12 , please.
Reply text: 3100

----------
ASSAY_METHOD_TEXT: Ocular tissue and plasma pharmacokinetics, 15 mg/kg single and BID oral, Dutch Belted rabbits (Example 3/5)
Type: in vivo
SETTINGS: Dutch Belted, rabbit, choroid-RPE, oral, 15 mg/kg, DB rabbits, Day 15, 15 mg/kg BID, 24 hr; read-out: Mean Choroid-RPE Concentration
OBSERVED_PROPERTY: concentration at 24 h (ng/g)
Answer with a number only, understood to be in ng/g.

Inquiry: Recorded concentration at 24 h of CC(=O)c1nn(CC(=O)N2C[C@H](F)C[C@H]2C(=O)Nc2cccc(Br)n2)c2ccc(-c3cnc(C)nc3)cc12 , please.
Reply text: 1960

----------
ASSAY_METHOD_TEXT: Ocular tissue distribution and pharmacokinetics, 7.5 and 15 mg/kg oral, pigmented Dutch Belted rabbits (Example 7)
Format: in vivo
SETTINGS: male, Dutch Belted, rabbit, plasma, po, […], plasma, male DB rabbits, Group 1, Day 1, […] single oral dose; read-out: AUC0-240
OBSERVED_PROPERTY: AUC(0-t) (ng·h/mL)
Answer with a number only, understood to be in ng·h/mL.

Inquiry: Recorded AUC(0-t) of CC(=O)c1nn(CC(=O)N2C[C@H](F)C[C@H]2C(=O)Nc2cccc(Br)n2)c2ccc(-c3cnc(C)nc3)cc12 [Compound 1] , please.
Reply text: 1680
